Quick reference: melting point of the listed items.

Here are 9 compounds together with their reported answers.
{"compound": "CCOC(=O)[C@H](O)[C@@H](NC(=O)OC(C)(C)C)c1ccc(C)cc1", "result": "130 °C"}
{"compound": "CCC(=O)Nc1c(Sc2cc(C)cc(C)c2)c(C)c[nH]c1=O", "result": "186 to 188 °C"}
{"compound": "CCCCCCCCCCCCCCCCCCOc1ccc(OCCCc2ccccc2)c(C(=O)O)c1", "result": "68 to 70 °C"}
{"compound": "CCCc1cc2cc(O)c(F)cc2c(Oc2ccc(/C=C/C(=O)O)cc2)c1-c1ccccc1", "result": "118 to 120 °C"}
{"compound": "O=C1NC(=O)c2c1c(-c1cc([N+](=O)[O-])cc([N+](=O)[O-])c1)cc1[nH]c3ccc(O)cc3c21", "result": "> 330 °C"}
{"compound": "FC(F)(F)CNC(=S)Nc1cccc(COC(=S)NCC(F)(F)F)n1", "result": "173 to 175 °C"}
{"compound": "Fc1ccc(Nc2nc(Cl)nc(Cl)n2)cc1C(F)(F)F", "result": "114 to 117 °C"}
{"compound": "Cc1cc2c(c(C)c1N)C(c1ccc(C(C)C)cc1)CO2 (stereo not given)", "result": "53 to 55 °C"}
{"compound": "Cc1nc(Cl)c([N+](=O)[O-])c(N(c2ccccc2)c2ccccc2)n1", "result": "128 to 130 °C"}

--- query ---
Look up melting point: Cc1ccc(S(=O)(=O)OCC2Cc3c[nH]c4cccc(c34)C(=O)N2)cc1 (stereo not given)
175 to 178 °C

* * *

measurement_name: melting point

These recorded examples may help you get a feel for the data.
{"compound": "COC(=O)c1cc(-c2cc(C)[nH]c2C)nn1C", "melting point": "63 to 65 °C"}
{"compound": "COc1ccc(CNc2nc(OCc3ccccn3)ncc2C(=O)c2cc(OC)c(OC)c(OC)c2)cc1Cl", "melting point": "129 °C"}
{"compound": "CC(C)(C)OC(=O)CCN(CCC12CC3CC(CC(C3)C1)C2)C(=O)NCCCc1ccncc1", "melting point": "124 to 127 °C"}
{"compound": "O=C(CN1C(=O)c2ccccc2C1=O)Nc1ccccc1Oc1ccccc1", "melting point": "143 °C"}
{"compound": "CC(C)(C)C1=CCC(C(=O)O)CC1 (stereo not given)", "melting point": "141 to 143 °C"}
{"compound": "CCCCNc1nc(-c2ccc(=O)n(C)n2)c(-c2ccccc2)nc1N", "melting point": "253 to 255 °C"}
{"compound": "COc1cc2c(cc1OC)C(c1ccc(SC(F)(F)F)cc1)CNCC2 (stereo not given)", "melting point": "95 °C"}
{"compound": "CCOC(=O)C(=CNc1ccccc1CO)C(=O)C(C)C", "melting point": "72 to 84 °C"}
{"compound": "CC1N(C)c2cc([N+](=O)[O-])ccc2C1(C)C (stereo not given)", "melting point": "55 to 59 °C"}

Any idea what its melting point is? The compound is `O=C(O)CCCc1nc2c(F)c(F)cc(F)c2s1`
113 to 114 °C

* * *

melting point values, listed per item

Known results for molecules:
{"molecule": "CC(C)CC1C(OC2CCCCO2)CC(=O)N1C(=O)OC(C)(C)C (configuration not stated)", "result": "81 to 83 °C"}
{"molecule": "O=C(c1ccccc1)c1nc2ncccc2o1", "result": "151 to 153 °C"}

Can you look up the measured melting point of `CC1(C)CCCNc2ccc([N+](=O)[O-])cc21` for me?
99 °C

Which melting point is listed for `COC(=O)c1cc2ccc(O)cc2o1` ?
176 to 177 °C

Could you share which melting point value was measured for `COc1ccc(C2=NN(c3cccc(C(=O)O)c3)C(=O)C(C)(C)C2)cc1OC` ?
165 to 167 °C

# lookup: melting point of `CS(=O)(=O)Nc1cc([C@@H](O)CNC2CCN(c3ccc(NC(=O)CCC4CCCC4)cc3)CC2)ccc1O`
82 to 90 °C

What does the data say about its melting point? Entry: `CC(C)N(CCO)c1nc(Nc2cccc(NS(C)(=O)=O)c2)nc2[nH]ccc12`
129 to 132 °C
